# credit: ChEMBL document CHEMBL5257080

assay: Clearance in rat at 3 mg/kg, iv; type: ADME, organism-based; conditions: in vivo
Endpoint: clearance (mL/min/kg)
Report the figure in mL/min/kg without appending any unit label.

Prompt: Query clearance for COCCCO[C@H]1CN(c2ccc(O[C@@H]3CCN(c4cc(OC)ncc4Cl)C[C@H]3C)cc2)[C@@H](CC(=O)O)[C@@H]1C
Response: 5.9

====

biological target: Free fatty acid receptor 1 (Mus musculus); test: Positive allosteric modulation of mouse GPR40
Sequence (Q76JU9 whole entry): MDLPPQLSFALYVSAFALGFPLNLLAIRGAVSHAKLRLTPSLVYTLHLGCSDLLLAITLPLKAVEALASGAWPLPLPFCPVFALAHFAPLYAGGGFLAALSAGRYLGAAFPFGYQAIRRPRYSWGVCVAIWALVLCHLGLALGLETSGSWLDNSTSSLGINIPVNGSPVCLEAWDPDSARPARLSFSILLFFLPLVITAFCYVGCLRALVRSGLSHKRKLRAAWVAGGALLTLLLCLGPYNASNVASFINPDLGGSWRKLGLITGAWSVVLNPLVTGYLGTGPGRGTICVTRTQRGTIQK
Endpoint: pEC50
// field semantics: pEC50 = negative decimal log of concentration (mol/L)

Prompt: Supply pEC50 value. Item: COCCCO[C@H]1CN(c2ccc(O[C@@H]3CCN(c4cc(OC)ncc4Cl)C[C@H]3C)cc2)[C@@H](CC(=O)O)[C@@H]1C
Response: 7.85

Prompt: Report pEC50 for CCOc1ccc(F)c(N2CC[C@@H](Oc3ccc(N4C[C@H](OCCCOC)[C@@H](C)[C@@H]4CC(=O)O)cc3)[C@H](C)C2)c1
Response: 7.74

Prompt: Entry COc1cc(N2CC[C@@H](Oc3ccc(N4C[C@H](F)[C@@H](C)[C@@H]4CC(=O)O)cc3)[C@H](C)C2)c(Cl)cn1 needs its pEC50 filled in; supply it.
Response: 7.32
